biological target: SMARCA2 (Homo sapiens, UniProt P51531); experiment: MSD SMARCA2 degradation in A549 cell line; type: cell-based; set-up: endogenous in cells; conditions: A549 cells, 24 h, read-out: SMARCA2 MSD A549 degradation 24 h: Average external-Abs DC50
Sequence (P51531 whole entry): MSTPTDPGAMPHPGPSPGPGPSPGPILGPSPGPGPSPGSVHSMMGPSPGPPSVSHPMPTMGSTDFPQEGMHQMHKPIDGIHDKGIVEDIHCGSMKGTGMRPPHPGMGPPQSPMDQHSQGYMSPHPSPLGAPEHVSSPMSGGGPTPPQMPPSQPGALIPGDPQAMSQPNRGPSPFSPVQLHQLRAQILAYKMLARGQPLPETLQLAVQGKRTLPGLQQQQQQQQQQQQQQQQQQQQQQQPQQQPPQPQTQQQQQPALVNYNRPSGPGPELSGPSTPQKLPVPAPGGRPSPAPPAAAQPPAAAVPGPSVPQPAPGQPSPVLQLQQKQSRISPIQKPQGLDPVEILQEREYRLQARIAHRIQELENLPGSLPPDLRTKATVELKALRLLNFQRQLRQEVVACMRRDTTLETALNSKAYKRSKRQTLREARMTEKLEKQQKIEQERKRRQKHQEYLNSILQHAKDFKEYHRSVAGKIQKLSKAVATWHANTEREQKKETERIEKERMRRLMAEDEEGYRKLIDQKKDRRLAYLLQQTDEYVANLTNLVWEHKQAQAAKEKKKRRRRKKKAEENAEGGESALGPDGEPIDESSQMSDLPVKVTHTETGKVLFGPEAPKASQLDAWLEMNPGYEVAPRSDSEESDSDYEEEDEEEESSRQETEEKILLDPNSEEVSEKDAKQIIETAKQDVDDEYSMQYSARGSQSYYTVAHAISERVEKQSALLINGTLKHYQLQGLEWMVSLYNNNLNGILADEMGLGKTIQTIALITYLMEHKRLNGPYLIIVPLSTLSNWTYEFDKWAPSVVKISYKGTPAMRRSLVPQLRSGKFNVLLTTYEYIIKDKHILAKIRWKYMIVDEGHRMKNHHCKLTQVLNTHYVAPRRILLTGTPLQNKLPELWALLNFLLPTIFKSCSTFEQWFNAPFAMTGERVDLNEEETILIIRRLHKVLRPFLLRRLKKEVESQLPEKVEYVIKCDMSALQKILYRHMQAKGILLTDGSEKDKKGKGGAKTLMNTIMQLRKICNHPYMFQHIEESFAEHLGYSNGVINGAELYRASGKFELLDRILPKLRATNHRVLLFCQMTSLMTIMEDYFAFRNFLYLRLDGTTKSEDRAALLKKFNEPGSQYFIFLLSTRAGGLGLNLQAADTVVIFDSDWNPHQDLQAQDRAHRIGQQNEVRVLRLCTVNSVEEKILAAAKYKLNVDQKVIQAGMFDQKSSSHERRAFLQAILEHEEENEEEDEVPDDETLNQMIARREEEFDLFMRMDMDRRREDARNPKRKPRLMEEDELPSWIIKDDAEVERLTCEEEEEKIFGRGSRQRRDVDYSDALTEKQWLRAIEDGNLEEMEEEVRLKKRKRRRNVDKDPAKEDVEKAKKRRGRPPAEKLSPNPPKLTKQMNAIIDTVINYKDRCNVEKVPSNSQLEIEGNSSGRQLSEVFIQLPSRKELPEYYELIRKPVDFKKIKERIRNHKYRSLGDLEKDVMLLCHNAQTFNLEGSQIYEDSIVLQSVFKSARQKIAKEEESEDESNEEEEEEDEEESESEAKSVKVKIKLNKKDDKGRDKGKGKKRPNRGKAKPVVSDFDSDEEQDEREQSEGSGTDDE
parameter: DC50

Sample answers from the record:
{"molecule": "Cc1ncsc1-c1ccc([C@H](C)NC(=O)[C@@H]2C[C@@H](O)CN2C(=O)[C@@H](NC(=O)[C@H]2CC3(C2)C[C@H](N2CCC(c4cnc(N5C6CCC5CN(c5cc(-c7ccccc7O)nnc5N)C6)nc4)CC2)C3)C(C)(C)C)cc1 (single isomer, unassigned) [I-2]", "DC50": "< 100 nM"}
{"molecule": "Cc1ncsc1-c1ccc(CNC(=O)[C@@H]2C[C@@H](O)CN2C(=O)[C@@H](NC(=O)[C@H]2CC3(C2)C[C@H](N2CC4(CN(c5cnc(N6C7CCC6CN(c6cc(-c8ccccc8O)nnc6N)C7)nc5)C4)C2)C3)C(C)(C)C)cc1 (stereo partly shown) [I-12]", "DC50": "100 to 500 nM"}
{"molecule": "Cc1ncsc1-c1ccc(CNC(=O)[C@@H]2C[C@@H](O)CN2C(=O)[C@@H](NC(=O)[C@H]2CC3(CC[C@H](N4CCC(c5cnc(N6C7CCC6CN(c6cc(-c8ccccc8O)nnc6N)C7)nc5)CC4)CC3)C2)C(C)(C)C)cc1 (stereo partly shown) [I-14]", "DC50": "< 100 nM"}
{"molecule": "Cc1ncsc1-c1ccc(CNC(=O)[C@@H]2C[C@@H](O)CN2C(=O)[C@@H](NC(=O)[C@H]2CCC3(CC2)C[C@H](N2CCC(c4cnc(N5C6CCC5CN(c5cc(-c7ccccc7O)nnc5N)C6)nc4)CC2)C3)C(C)(C)C)cc1 (stereo partly shown) [I-43]", "DC50": "100 to 500 nM"}
{"molecule": "Cc1ncsc1-c1cnc(CNC(=O)[C@@H]2C[C@@H](O)CN2C(=O)[C@@H](NC(=O)[C@H]2CC3(C2)C[C@H](N2CCC(c4ccc(N5C6CCC5CN(c5cc(-c7ccccc7O)nnc5N)C6)cc4)CC2)C3)C(C)(C)C)cn1 (stereo partly shown) [I-29]", "DC50": "> 1000 nM"}

For every item below, please supply its DC50.
1. Cc1ncsc1-c1ccc([C@H](C)NC(=O)[C@@H]2C[C@@H](O)CN2C(=O)[C@@H](NC(=O)[C@H]2CC3(C2)C[C@H](N2CCC(c4ccc(N5C6CCC5CN(c5cc(-c7ccccc7O)nnc5N)C6)cc4)CC2)C3)C(C)(C)C)cn1 (single isomer, unassigned) [I-5]
2. Cc1ncsc1-c1ccc([C@H](C)NC(=O)[C@@H]2C[C@@H](O)CN2C(=O)[C@@H](NC(=O)[C@H]2CC3(C2)C[C@H](N2CCC(c4cnc(N5C6CCC5CN(c5cc(-c7ccccc7O)nnc5N)C6)nc4)CC2)C3)C(C)(C)C)cc1 (single isomer, unassigned) [I-1]
3. Cc1ncsc1-c1cnc(CNC(=O)[C@@H]2C[C@@H](O)CN2C(=O)[C@@H](NC(=O)[C@H]2CC3(C2)C[C@H](N2CCC(c4ccc(N5C6CCC5CN(c5cc(-c7ccccc7O)nnc5N)C6)cc4)CC2)C3)C(C)(C)C)cn1 (stereo partly shown) [I-30]
4. Cc1ncsc1-c1ccc(CNC(=O)[C@@H]2C[C@@H](O)CN2C(=O)[C@@H](NC(=O)C2CC3(C2)CN(C2CCN(c4cnc(N5C6CCC5CN(c5cc(-c7ccccc7O)nnc5N)C6)nc4)CC2)C3)C(C)(C)C)cc1 [I-10]
5. Cc1ncsc1-c1ccc(CNC(=O)[C@@H]2C[C@@H](O)CN2C(=O)[C@@H](NC(=O)[C@H]2CC3(C2)C[C@H](N2CCC(c4ccc(N5C6CCC5CN(c5cc(-c7ccccc7O)nnc5N)C6)cc4)CC2)C3)C(C)(C)C)nc1 (stereo partly shown) [I-23]
6. Cc1ncsc1-c1ccc(CNC(=O)[C@@H]2C[C@@H](O)CN2C(=O)[C@@H](NC(=O)[C@H]2CC3(C2)C[C@H](N2CC4(CN(c5cnc(N6C7CCC6CN(c6cc(-c8ccccc8O)nnc6N)C7)nc5)C4)C2)C3)C(C)(C)C)cc1 (stereo partly shown) [I-11]
7. Cc1ncsc1-c1ccc([C@H](C)NC(=O)[C@@H]2C[C@@H](O)CN2C(=O)[C@@H](NC(=O)[C@H]2CC3(C2)C[C@H](N2CCC(c4ccc(N5C6CCC5CN(c5cc(-c7ccccc7O)nnc5N)C6)cc4)CC2)C3)C(C)(C)C)cn1 (single isomer, unassigned) [I-6]
8. Cc1ncsc1-c1ccc(CNC(=O)[C@@H]2C[C@@H](O)CN2C(=O)C(c2cc(O[C@H]3CC[C@@H](N4CCC(c5cnc(N6C7CCC6CN(c6cc(-c8ccccc8O)nnc6N)C7)nc5)CC4)CC3)no2)C(C)C)cc1 (stereo partly shown) [I-18]

// result
1: > 1000 nM; 2: 100 to 500 nM; 3: > 1000 nM; 4: 501 to 1000 nM; 5: > 1000 nM; 6: 100 to 500 nM; 7: > 1000 nM; 8: < 100 nM
